Test system: EKVX NSCLC
Assay: NCI tumour cell line growth inhibition, 48 h; in the data active = GI50 below about 0.43 µM; inactive = the rest
Tick one outcome: t (active), f (inactive)

Consider the following illustrative entries.
{"columns": ["molecule", "assayed_target", "class"],
 "data": [
  ["O=C(NNS(=O)(=O)c1ccc(Cl)cc1Cl)c1cccnc1Nc1ccc(Cl)cc1", "EKVX NSCLC", "f"],
  ["FC(F)(F)c1cccc(-c2nn3ncccc3c2-c2ccnc(Nc3ccc4c(c3)OCCO4)n2)c1", "EKVX NSCLC", "f"],
  ["CSc1ccc(C2=NN(C(C)=O)C(c3ccc(-c4ccc(Cl)cc4)o3)C2)cc1 (centres undefined)", "EKVX NSCLC", "f"],
  ["COc1cc2cc(Oc3ccc(NC(=O)c4ccc(Cl)c(Cl)c4)cc3)c(C)nc2cc1OC", "EKVX NSCLC", "f"]
]}

For O=C1C(OCCOc2ccccc2)=C(OCCOc2ccccc2)C(=O)c2ccccc21 , what call appears in the results of this test? f

Dear colleague, could you share the recorded outcome for O=C(Nc1ccccc1OC(=O)c1ccccc1)c1ccccc1 when you have a moment? f

Hi, sorry to bother you, what did the test record for CN1CCc2nc3sc(C(N)=O)c(N)c3c(-c3cccs3)c2C1 ? f

Hey, what did the test say about C[C@@H]1O[C@@H](O[C@@H]2[C@@H](O)[C@H](OCCc3ccc(O)c(O)c3)O[C@H](CO)[C@H]2OC(=O)/C=C/c2ccc(O)c(O)c2)[C@H](O)[C@H](OC2OC[C@](O)(CO)[C@H]2O)[C@H]1O (some centres undefined) ? f

What call does the record list for COc1cc(C(=O)c2cc(C)c3[nH]c4ccc(O)cc4c3c2C)cc(OC)c1OC ? t
